- Test system: Panc 05.04 cells (pancreatic cancer cells; Q699H and K700E mutations in SF3B1)
- assay-info: Cell viability assay (CellTiter-Glo, 72 hr), Panc 05.04 cells
- Type: cell-based
- measurement-setup: Panc 05.04 cells (mutant SF3B1); read-out: Panc 05.04 (mt SF3B1 cells), GI50
reported-property: GI50

Example cases with answers are listed next.
molecule: C/C(=C\C=C\C(C)(C)COC(=O)N1CCCC1)[C@H]1OC(=O)C[C@H](OC(=O)N2CCCC2)CC[C@@](C)(O)[C@@H](OC(=O)N2CCN(C3CCCCCC3)CC2)/C=C/[C@@H]1C
reading: 86.3 nM

molecule: C/C(=C\C=C\[C@@H](C)COC(=O)N1CC[C@@H](O)C1)[C@H]1OC(=O)C[C@H](O)CC[C@@](C)(O)[C@@H](OC(=O)N2CCN(C3CCCCCC3)CC2)/C=C/[C@@H]1C
reading: 5.51 nM

molecule: C/C(=C\C=C\[C@@H](C)COC(=O)N1CCC[C@H]1CO)[C@H]1OC(=O)CCCC[C@@](C)(O)[C@@H](OC(=O)N2CCN(C)CC2)/C=C/[C@@H]1C
reading: 2.07 nM

molecule: C/C(=C\C=C\[C@H](C)COC(=O)N1CCCC1)[C@H]1OC(=O)C[C@H](O)CC[C@@](C)(O)[C@@H](OC(=O)N2CCN(C3CCCCCC3)CC2)/C=C/[C@@H]1C
reading: 11.7 nM

molecule: CC(=O)O[C@H]1/C=C/[C@H](C)[C@@H](/C(C)=C/C=C/[C@H](C)c2ccccn2)OC(=O)C[C@H](O)CC[C@@]1(C)O
reading: 546 nM

response.value for C/C(=C\C=C\[C@@H](C)c1ccccn1)[C@H]1OC(=O)C[C@H](O)CC[C@@](C)(O)[C@@H](OC(=O)N2CCN(C(C)C)CC2)/C=C/[C@@H]1C (field: GI50) = 26.6 nM

Query C/C(=C\C=C\[C@@H](C)c1ccccn1)[C@H]1OC(=O)C[C@H](O)CC[C@@](C)(O)[C@@H](OC(=O)N2CC3(C2)CN(C2CCCCCC2)C3)/C=C/[C@@H]1C yields GI50 of 115 nM

Sure, the documented GI50 for CC(=O)O[C@H]1/C=C/[C@H](C)[C@@H](/C(C)=C/C=C/C(C)(O)CCc2ccccc2)OC(=O)C[C@H](O)CC[C@@]1(C)O (stereo partly drawn) is 354 nM

Lookup result for C/C(=C\C=C\[C@@H](C)COC(=O)N1CCC[C@H]1CF)[C@H]1OC(=O)C[C@H](O)CC[C@@](C)(O)[C@@H](OC(=O)N2CCN(C3CCCCCC3)CC2)/C=C/[C@@H]1C ; measured GI50: 1.75 nM

Measured GI50 of C/C(=C\C=C\[C@@H](C)c1ccccn1)[C@H]1OC(=O)C[C@H](O)CC[C@@](C)(O)[C@@H](OC(=O)N2CCN(C3CCC3)CC2)/C=C/[C@@H]1C : 38.9 nM

Record summary for C/C(=C\C=C\C(C)c1ncccc1C)[C@H]1OC(=O)C[C@H](O)CC[C@@](C)(O)[C@@H](OC(=O)N2CCN(C3CCCCCC3)CC2)/C=C/[C@@H]1C (stereo partly drawn) : reported GI50 = 21.2 nM

In plain terms, CC(=O)O[C@H]1/C=C/[C@H](C)[C@@H](/C(C)=C/C=C/C(C)CCc2ccccn2)OC(=O)C[C@H](O)CC[C@@]1(C)O (stereo partly drawn) has a documented GI50 of 972 nM
